This collection of values is drawn from patent US5834506A.

Assay: Cellular toxicity in uninfected CEM cells (TC50)
Type: cell-based
Settings: human, inhibits 50% of the viability of uninfected cells
readout.label: CC50 (µM)
Numbers only, in µM.

Study these solved cases before continuing.
[
  {
    "molecule": "Cc1cc(SC2=C(O)CC(CCc3ccc(O)cc3)(C3CCCCC3)OC2=O)c(C(C)(C)C)cc1O (centres unmarked)",
    "readout.label": "CC50",
    "unit.text": "µM",
    "value": 73
  },
  {
    "molecule": "Cc1cc(SC2=C(O)CC(C)(CCc3ccc(O)cc3)OC2=O)c(C(C)(C)C)cc1OS(=O)(=O)NC(C)(C)C (racemic)",
    "readout.label": "CC50",
    "unit.text": "µM",
    "value": 56
  },
  {
    "molecule": "Cc1cc(SC2=C(O)CC(CCc3ccccc3)(c3ccc(OCCO)cc3)OC2=O)c(C(C)(C)C)cc1OS(=O)(=O)N1CCN(C)CC1 (centres unmarked)",
    "readout.label": "CC50",
    "unit.text": "µM",
    "value": 58
  },
  {
    "molecule": "CCNS(=O)(=O)Oc1cc(C(C)(C)C)c(SC2=C(O)CC(CCc3ccc(O)cc3)(C3CCCCC3)OC2=O)cc1C (centres unmarked)",
    "readout.label": "CC50",
    "unit.text": "µM",
    "value": 67
  }
]

Batch lookup, CC50 per entry.
1. Cc1cc(SC2=C(O)CC(CCc3cccc(O)c3)(CCc3cccc(O)c3)OC2=O)c(C(C)(C)C)cc1OS(=O)(=O)N(C)C
2. CCNS(=O)(=O)Oc1cc(C(C)(C)C)c(SC2=C(O)CC(C)(CCc3ccc(O)cc3)OC2=O)cc1C (racemic)
3. Cc1ccc(C(C)(C)C)c(SC2=C(O)CC(CCc3ccccc3)(CCC(C)C)OC2=O)c1 (centres unmarked) [Ref C, reference compound]
4. Cc1cc(SC2=C(O)CC(CCc3ccc(O)cc3)(CCc3ccc(O)cc3)OC2=O)c(C(C)(C)C)cc1N
5. Cc1ccc(C(C)(C)C)c(SC2=C(O)CC(CCc3ccccc3)(c3ccc(OCCN4CCNCC4)cc3)OC2=O)c1 (centres unmarked)
6. Cc1cc(SC2=C(O)CC(CCc3cccc(O)c3)(CCc3cccc(O)c3)OC2=O)c(C(C)(C)C)cc1CO

Ans.
1. 66
2. 66
3. 28
4. 65
5. 84
6. 66
